Values from patent US9999616B2

target.under.test: Brd4 bromodomain 1 (BRD4(1)) (Homo sapiens)
procedure.details: Inhibition of tetra-acetylated histone H4 binding to Brd4 bromodomain 1, measured by FRET (HTRF)
Set-up: made in house; host or cells: E. coli BL21(DE3)
test.parameters: 2 h at room temperature
Listed next: entries and their corresponding IC50.

Examples with answers:
compound	IC50
COc1ccc(F)c(-c2cc(-c3c(C)noc3C)cc3[nH]c(C)nc23)c1 [Example Compound 108]	≤ 0.3 µM
Cc1noc(C)c1-c1cc(-c2c(C)noc2C)c2nc(N(C)C)[nH]c2c1 [Example Compound 116]	0.3 to 3 µM
Cc1noc(C)c1-c1cc(NCc2cccnc2)c2nc[nH]c2c1 [Example Compound 35]	≤ 0.3 µM
Cc1nc2c(-c3ncccc3C)cc(-c3c(C)noc3C)cc2[nH]1 [Example Compound 84]	0.3 to 3 µM
Cc1noc(C)c1-c1cc(NCc2ccc(F)cc2)c2nc[nH]c2c1 [Example Compound 38]	≤ 0.3 µM
Cc1noc(C)c1-c1cc(-c2c(C)noc2C)c2[nH]ncc2c1 [Example Compound 21]	≤ 0.3 µM

IN: Please report the measured IC50 for Cc1nc2c(-c3c(C)noc3C)cc(-c3c(C)noc3C)cc2[nH]1 [Example Compound 6] tested on Brd4 bromodomain 1 (BRD4(1)) (Homo sapiens).
OUT: ≤ 0.3 µM

IN: Please report the measured IC50 for CCOc1ncccc1-c1cc(-c2c(C)noc2C)cc2[nH]c(C)nc12 [Example Compound 109] tested on Brd4 bromodomain 1 (BRD4(1)) (Homo sapiens).
OUT: ≤ 0.3 µM

IN: Please report the measured IC50 for Cc1ccc(C(N)=O)cc1-c1cc(-c2c(C)noc2C)cc2[nH]c(NCc3ccccc3)nc12 [Example Compound 220] tested on Brd4 bromodomain 1 (BRD4(1)) (Homo sapiens).
OUT: ≤ 0.3 µM

IN: Please report the measured IC50 for Cc1nc2c(-c3ccnn3C)cc(-c3ccnn3C)cc2[nH]1 [Example Compound 134] tested on Brd4 bromodomain 1 (BRD4(1)) (Homo sapiens).
OUT: 0.3 to 3 µM
